Substrate: CC(=O)N[C@H]1[C@H](Oc2ccc3c(C)cc(=O)oc3c2)O[C@H](CO)[C@@H](O[C@@H]2O[C@H](CO)[C@@H](O)[C@H](O)[C@H]2NC(C)=O)[C@@H]1O
Experiment: fluorogenic substrate hydrolysis, Michaelis-Menten non-linear fit
Assay type: biochemical, Pseudoalteromonas aurantia
Conditions: McIlvaine's buffer pH 5.0, substrate 0.01-0.6 mM, temperature not given for kinetics
experimental endpoint: kcat (s⁻¹)

protein	display unit	assay value
Chi23 (Pseudoalteromonas aurantia; N9A) (protein, pET22b NdeI/XhoI, His-tagged (C-terminal by primer design), E. coli BL21(DE3); monomer; forward primer encodes …, reverse primer encodes AQSLNS at the C-terminus) MSKTITYYASGAVPLINASELPYDVVNLAFLSSSSNNPFNLVLSGAIAATESSFTTNTIEAIKVMQHKGQKVLISFGGGTMGSNAYRSLSEDTAKLADSLASFVKNNQLDGVDIDYEDTAAFTGQAGYDGAQFLISLTQELRKRLPSPDYIISHAPQPPYLEQGGYMAGYVEVVELVGQEIDWLNVQFYNNPPWSANPDQIVSSYLNYTKLPNMSPEKVIAGFPVTQNDAGSGYMPVQTIINEVIKPIQQQSSLGGIMNWQFSSDHNGDWIKAIAQSLNS	s⁻¹	0.0021
Chi23 (Pseudoalteromonas aurantia; T80A) (protein, pET22b NdeI/XhoI, His-tagged (C-terminal by primer design), E. coli BL21(DE3); monomer; forward primer encodes MSKTITYYNS, reverse primer encodes AQSLNS at the C-terminus) MSKTITYYNSGAVPLINASELPYDVVNLAFLSSSSNNPFNLVLSGAIAATESSFTTNTIEAIKVMQHKGQKVLISFGGGAMGSNAYRSLSEDTAKLADSLASFVKNNQLDGVDIDYEDTAAFTGQAGYDGAQFLISLTQELRKRLPSPDYIISHAPQPPYLEQGGYMAGYVEVVELVGQEIDWLNVQFYNNPPWSANPDQIVSSYLNYTKLPNMSPEKVIAGFPVTQNDAGSGYMPVQTIINEVIKPIQQQSSLGGIMNWQFSSDHNGDWIKAIAQSLNS	s⁻¹	0.0073
Chi23 (Pseudoalteromonas aurantia; Q157A) (protein, pET22b NdeI/XhoI, His-tagged (C-terminal by primer design), E. coli BL21(DE3); monomer; forward primer encodes MSKTITYYNS, reverse primer encodes AQSLNS at the C-terminus) MSKTITYYNSGAVPLINASELPYDVVNLAFLSSSSNNPFNLVLSGAIAATESSFTTNTIEAIKVMQHKGQKVLISFGGGTMGSNAYRSLSEDTAKLADSLASFVKNNQLDGVDIDYEDTAAFTGQAGYDGAQFLISLTQELRKRLPSPDYIISHAPAPPYLEQGGYMAGYVEVVELVGQEIDWLNVQFYNNPPWSANPDQIVSSYLNYTKLPNMSPEKVIAGFPVTQNDAGSGYMPVQTIINEVIKPIQQQSSLGGIMNWQFSSDHNGDWIKAIAQSLNS	s⁻¹	0.0022
Chi23 (Pseudoalteromonas aurantia; D229A) (protein, pET22b NdeI/XhoI, His-tagged (C-terminal by primer design), E. coli BL21(DE3); monomer; forward primer encodes MSKTITYYNS, reverse primer encodes AQSLNS at the C-terminus) MSKTITYYNSGAVPLINASELPYDVVNLAFLSSSSNNPFNLVLSGAIAATESSFTTNTIEAIKVMQHKGQKVLISFGGGTMGSNAYRSLSEDTAKLADSLASFVKNNQLDGVDIDYEDTAAFTGQAGYDGAQFLISLTQELRKRLPSPDYIISHAPQPPYLEQGGYMAGYVEVVELVGQEIDWLNVQFYNNPPWSANPDQIVSSYLNYTKLPNMSPEKVIAGFPVTQNAAGSGYMPVQTIINEVIKPIQQQSSLGGIMNWQFSSDHNGDWIKAIAQSLNS	s⁻¹	0.0014
Chi23 (Pseudoalteromonas aurantia; N190A) (protein, pET22b NdeI/XhoI, His-tagged (C-terminal by primer design), E. coli BL21(DE3); monomer; forward primer encodes MSKTITYYNS, reverse primer encodes AQSLNS at the C-terminus) MSKTITYYNSGAVPLINASELPYDVVNLAFLSSSSNNPFNLVLSGAIAATESSFTTNTIEAIKVMQHKGQKVLISFGGGTMGSNAYRSLSEDTAKLADSLASFVKNNQLDGVDIDYEDTAAFTGQAGYDGAQFLISLTQELRKRLPSPDYIISHAPQPPYLEQGGYMAGYVEVVELVGQEIDWLNVQFYANPPWSANPDQIVSSYLNYTKLPNMSPEKVIAGFPVTQNDAGSGYMPVQTIINEVIKPIQQQSSLGGIMNWQFSSDHNGDWIKAIAQSLNS	s⁻¹	2e-05
Chi23 (Pseudoalteromonas aurantia) (protein, pET22b NdeI/XhoI, His-tagged (C-terminal by primer design), E. coli BL21(DE3); monomer; forward primer encodes MSKTITYYNS, reverse primer encodes AQSLNS at the C-terminus) MSKTITYYNSGAVPLINASELPYDVVNLAFLSSSSNNPFNLVLSGAIAATESSFTTNTIEAIKVMQHKGQKVLISFGGGTMGSNAYRSLSEDTAKLADSLASFVKNNQLDGVDIDYEDTAAFTGQAGYDGAQFLISLTQELRKRLPSPDYIISHAPQPPYLEQGGYMAGYVEVVELVGQEIDWLNVQFYNNPPWSANPDQIVSSYLNYTKLPNMSPEKVIAGFPVTQNDAGSGYMPVQTIINEVIKPIQQQSSLGGIMNWQFSSDHNGDWIKAIAQSLNS	s⁻¹	0.0054
